Where do these numbers come from? They come from PubChem BioAssay AID1053133.

assay: blocks a specific stage of Vaccinia orthopoxvirus infection, primary screen, cell-based, single point (AID 1053133); details: Vaccinia-infected cells, mCherry/Venus stage reporter fluorescence, stronger effect = lower value, concentration not given here
The whole screen tested about 89,000 compounds, of which about 10 (0.01%) were called active. Not shown: some 10% with an inconclusive outcome. Not all results are given here.
activity change (mCherry) values, listed per item
Value expressed in %; do not type the unit.

The following compounds have reported results that may help.
>  <Test smiles>
Cc1ccc(S(=O)(=O)N(C)C[C@@H]2Oc3ccc(NS(=O)(=O)c4ccc(F)cc4)cc3CC(=O)N([C@@H](C)CO)C[C@H]2C)cc1

>  <Unit symbol>
%

>  <activity change (mCherry)>
2.93

$$$$
>  <Test smiles>
COc1ccc(NC(=O)Nc2ccc3c(c2)C(=O)N([C@@H](C)CO)C[C@@H](C)[C@@H](CN(C)C(=O)Nc2ccc(F)cc2)OCCCC[C@@H](C)O3)cc1

>  <Unit symbol>
%

>  <activity change (mCherry)>
0.168

$$$$
>  <Test smiles>
C[C@@H]1CN([C@H](C)CO)C(=O)c2cc(-c3ccccc3)cnc2O[C@H]1CN(C)C(=O)NC1CCCC1

>  <Unit symbol>
%

>  <activity change (mCherry)>
1.1

$$$$

Need activity change (mCherry) of CC(=O)N(C)C[C@@H]1Oc2ncc(C#Cc3ccccn3)cc2C(=O)N([C@@H](C)CO)C[C@@H]1C , thanks.
7.16

====

assay: blocks a specific stage of Vaccinia orthopoxvirus infection, primary screen, cell-based, single point (AID 1053133); settings: Vaccinia-infected cells, mCherry/Venus stage reporter fluorescence, stronger effect = lower value, concentration not given here; measured here: Venus reporter, other viral stage
Out of some 89,000 compounds screened, about 10 (0.01%) were called active. Roughly 10% stayed inconclusive and do not appear here. These entries were drawn from the full list.
Quantity measured: activity change (Venus) (%)
Value expressed in %; do not type the unit.

The following compounds have reported results that may help.
>  <Test smiles>
CNC(=O)C[C@@H]1CC[C@@H]2[C@H](COC[C@H](O)CN2Cc2ccc(C(F)(F)F)cc2)O1

>  <Unit symbol>
%

>  <Readout number>
3.54

$$$$
>  <Test smiles>
C[C@H]1CCCCO[C@H](CN(C)S(=O)(=O)c2cn(C)cn2)[C@@H](C)CN([C@@H](C)CO)C(=O)c2cc(NC(=O)C3CCCCC3)ccc2O1

>  <Unit symbol>
%

>  <Readout number>
4.42

$$$$
>  <Test smiles>
O=C(C[C@H]1CC[C@@H]2[C@H](COC[C@@H](O)CN2CC2CC2)O1)NCC1CC1

>  <Unit symbol>
%

>  <Readout number>
15.8

$$$$

Please look at the following compound next.
Need activity change (Venus) of O=C(Cc1ccccn1)N[C@H]1CC[C@H](CCn2cc(-c3ccc(F)cc3)nn2)O[C@H]1CO , thanks.
1.48

====

assay: blocks a specific stage of Vaccinia orthopoxvirus infection, primary screen, cell-based, single point (AID 1053133); conditions: Vaccinia-infected cells, mCherry/Venus stage reporter fluorescence, stronger effect = lower value, concentration not given here; measured here: Venus reporter, other viral stage
Screen size: about 89,000 compounds; about 10 (0.01%) were called active. Not shown: some 10% with an inconclusive outcome. Only a sample is shown.
Quantity measured: activity change (Venus) (%)
Value expressed in %; do not type the unit.

>  <Test smiles>
COc1ccccc1-c1cnc2c(c1)C(=O)N([C@H](C)CO)C[C@H](C)[C@@H](CN(C)C(=O)CC1CC1)O2

>  <activity change (Venus) (%)>
-0.21

$$$$
>  <Test smiles>
CN1C(=O)c2cc(NC(=O)c3ccccc3)ccc2OC[C@H]2O[C@@H](CC(=O)O)CC[C@@H]21

>  <activity change (Venus) (%)>
4.29

$$$$
>  <Test smiles>
CN(C)C(=O)c1cccc(-c2ccc3c(c2)[C@@H]2[C@@H](CCN2Cc2nccs2)[C@@H](CO)N3)c1

>  <activity change (Venus) (%)>
-3.17

$$$$
>  <Test smiles>
CC(=O)N(C)C[C@@H]1Oc2ncc(C#Cc3ccccn3)cc2C(=O)N([C@@H](C)CO)C[C@@H]1C

>  <activity change (Venus) (%)>
9.68

$$$$
>  <Test smiles>
COc1ccc(-c2cn(CC[C@H]3CC[C@@H](NC(=O)CCN4CCCCC4)[C@H](CO)O3)nn2)cc1

>  <activity change (Venus) (%)>
12

$$$$

Need activity change (Venus) of C[C@H](O)C#Cc1ccc([C@@H]2[C@@H](CO)N3CCCCN(C(=O)c4ccc(F)cc4)C[C@H]23)cc1 , thanks.
-0.172

Need activity change (Venus) of CO[C@@H]1CC[C@H]2CCN(C)C(=O)C[C@@H](c3ccccc3)CN(C)C(=O)c3cc(C#N)ccc3OC[C@@H]1O2 , thanks.
-9.45
